assay: yeast display, Sf9 membrane polyspecificity reagent, FACS + sequencing; frameworks hold sequencing errors
MEASUREMENT NAME: polyreactivity (PSR sort gate)

[[record]]
sequence_text = "QVQLEESGGGLVQAGGSLRLSCAASGSTFQLYAMGWYRPAPGKERELVAGISRDGSTYYADSVKGRFTISRDNAKNTVFLQMNSLKPEDTAVYYCAAKYYGNKRDLYYWGQGTQVTVSS"
measurement_name = "polyreactivity (PSR sort gate)"
observed_result = "low polyreactivity"

[[record]]
sequence_text = "QVQLVESGGGLVQAGGSLRLSCAASGRTIWYYAMGWYRQAPGKERELVAAITYRGGSTYYADSVKGRFTISRDNVKNTVYLQMNSLKPEDTAVYFCAKENYYGGGFDYWGQGTQVTVSS"
measurement_name = "polyreactivity (PSR sort gate)"
observed_result = "high polyreactivity"

[[record]]
sequence_text = "QVQLVESGGGLVQAGGSLRLSCAASGYIFPGNAMGWYRQAPGKERELVATISGSAGSTSYADSVKGRFTISRDNAKNTVYLQMNSLKPEDTAVYYCNKAYSYSWGDLDYWGQGTQVTVSS"
measurement_name = "polyreactivity (PSR sort gate)"
observed_result = "high polyreactivity"

[[record]]
sequence_text = "QVQLLESGGGLVQAGGSLRLSCAASGRIFKFNAMGWYRQAPGKERDLVAAISKRGGSTYYADSVKGRFTISRDNAKNTVYLQMISLKPEDTAVYYCAADRSPYGGDYDYWGQGTQVTVSS"
measurement_name = "polyreactivity (PSR sort gate)"
observed_result = "high polyreactivity"

[[record]]
sequence_text = "QLQLVESGGGLVQAGGSLRLSCAASGLTFVDYAMGWYRQAPGKERELVAAITSSGGSITYYADSVKGRFTISRDNAKNTVYLQLNSLKPEDTAVYYCNADYGIYTDSFRGPDYESWGQGTQVTVSS"
measurement_name = "polyreactivity (PSR sort gate)"
observed_result = "low polyreactivity"


Q: polyreactivity (PSR sort gate) lookup needed for `QVQLVESGGGLVQAGGSLRLSCAASGSTFRWNAMGWYRQAPGKERELVAAISGNGGSTYYADSVKGRFTISRDNAKNTVYLHMNTLKPEYNAVYYCAARGYFCSSYKYDYRGQGTQVTVSS` , thanks.
A: high polyreactivity

Q: `QVQLVESGGGLVQAGGSLRLSCAASGRIFSFYTKGWYRQEPGKERHLVAANSGSGGSTYYADSVKGRFTISRDNAKNTVYLQMISLKPEDTEFYYCAAGYGFRYYLYDYWGQGTQVTVSS` ?
A: high polyreactivity

Q: `QVQLVESGGGIVQAGGSLSLSCAASGRSFRYYAMGWYRQAPGKEREMVAAIDTSSGSTYYADSVKGRFTISRDNAMNTVFLQMNSLKPEDTAVYYCNATWWIPLIYDYWGQGTHVTVSS` ?
A: low polyreactivity

Q: `QVQRVESGGGLVQAGGSLRLSCAASGRILYWYAMGWYRQAPGKERELVAGIDWSGGSTYYADSVKGRFTISRDKAKTTVYLQMNSLKPEDTAVYYCNAAQNRGRGSHRGESTYYYSGQGTQVTVSS` ?
A: low polyreactivity

Q: `HVHLVESGGGLVQAGGSLRLSCASSGPTFGWNVMGWYRQAPGKERELVAAISGSGGSTYYADSVKGRFTISRDNAKNTVYSQMNSLKPEDTAVYYCAALYGPGREYDYWGQGTQVSVSS` ?
A: low polyreactivity

Q: `QVQLVESGGGLVQAGGSLRLSCAASGRTFYYNPMGWYRQAPGKERELVAAITQSGGRTYYADSVKGRFTISRDNAKNTVYVQMNSVKPEDSAVYYFYAVRPVRGYIYQGYNYWGQGTQVTVSS` ?
A: high polyreactivity
